- ASSAY SYSTEM: UniProt:P23979
- Sequence (P23979 24-489): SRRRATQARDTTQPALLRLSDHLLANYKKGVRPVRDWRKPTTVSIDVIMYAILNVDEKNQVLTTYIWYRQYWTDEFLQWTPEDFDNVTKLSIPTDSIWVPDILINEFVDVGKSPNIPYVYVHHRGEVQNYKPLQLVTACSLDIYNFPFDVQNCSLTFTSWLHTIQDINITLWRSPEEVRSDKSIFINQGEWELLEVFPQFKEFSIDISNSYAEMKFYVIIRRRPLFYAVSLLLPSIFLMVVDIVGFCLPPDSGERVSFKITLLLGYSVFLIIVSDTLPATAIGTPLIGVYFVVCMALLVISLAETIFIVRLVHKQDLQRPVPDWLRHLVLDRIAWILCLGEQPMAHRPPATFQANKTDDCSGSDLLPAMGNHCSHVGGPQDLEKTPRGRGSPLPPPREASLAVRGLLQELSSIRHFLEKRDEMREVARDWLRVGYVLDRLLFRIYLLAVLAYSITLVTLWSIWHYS
- EXPERIMENT NOTES: Two-electrode voltage clamp of Xenopus oocytes expressing 5-HT3A wild type
- Type: cell-based
REPORTED METRIC: pIC50
pIC50 field: float, defined as -log10 of concentration (mol/L).

[in] Fill in: pIC50 of COc1ccc([C@@H]2Sc3ccccc3N(CCN(C)C)C(=O)[C@@H]2OC(C)=O)cc1 is ___
[out] 4.80
